# TGI annotations
tested on: ACHN renal; test: NCI tumour cell line growth inhibition, 48 h
measure: TGI

1) COc1ccc(/C=N/n2c(Cc3ccc(Cl)cc3)n[nH]c2=O)c(OC)c1 :: > 100 µM
2) CCOC(=O)C(=O)Nc1ccc(Cl)c(C(F)(F)F)c1 :: > 100 µM
3) O=C(CCCn1ccnc1[N+](=O)[O-])NCCn1ccnc1[N+](=O)[O-] :: > 100 µM
4) COc1ccccc1NC(=O)CC(=O)NNCC(=O)Nc1nnc(-c2ccccc2)o1 :: > 100 µM
5) COC1/C=C/C(C)C(C(C)C(OC)C(C)CCC(=O)C(C)C(C/C=C/N(C)C=O)OC)OC(=O)/C=C/C=C(\C)CC(OC)C(OC)C2=CC(=O)O[C@@H](C(C)C(OC)CC(OC)/C=C/C(C)C(O)C1)[C@H]2O (stereo partly specified) :: 0.594 µM
6) Cn1ccc(C(=O)NCCCCCNC(=O)c2ccn(C)c(=O)c2O)c(O)c1=O :: > 100 µM

----------
test system: NCI-H460 lung; assay: NCI tumour cell line growth inhibition, 48 h
measure: TGI (µM)

1. C=C(C)[C@@H]1CC[C@]2(C(=O)NCCNCCNCCN)CC[C@]3(C)[C@H](CC[C@@H]4[C@@]5(C)CCC(=O)C(C)(C)[C@@H]5CC[C@]43C)[C@@H]12 :: 18.1
2. Clc1ncnc2c1ncn2CCCCCCCCCCCCn1cnc2c(Cl)ncnc21 :: 31.8
3. Cc1cc([N+](=O)[O-])ccc1N=NC(=O)NNc1ccc([N+](=O)[O-])cc1C :: 33.4
4. Cc1ccc2nc(N/N=C/c3cccc(C)n3)cc(C)c2c1 :: 23.2
5. CC1(C)[C@@H]2C[C@H]1C(Cc1cccc(C[C@H]3c4cc(-c5ccccn5)ncc4[C@H]4C[C@@H]3C4(C)C)c1)c1cc(-c3ccccn3)ncc12 (stereo partly drawn) :: 12

----------
system: UACC-62 melanoma; test: NCI tumour cell line growth inhibition, 48 h; in the data active = GI50 below about 0.43 µM; inactive = the rest
Possible outcomes: class 1 = active, class 0 = inactive

1. OCc1ccc(Oc2c3ccccc3nc3occc23)cc1 :: class 0
2. C=C(C)[C@@H]1CC[C@]2(C(=O)NCCNCCNCCN)CC[C@]3(C)[C@H](CC[C@@H]4[C@@]5(C)CCC(=O)C(C)(C)[C@@H]5CC[C@]43C)[C@@H]12 :: class 0
3. COc1ccc2[nH]cc(-c3nc(-c4c[nH]c5ccncc45)cs3)c2c1 :: class 0
4. Cc1ccc(Oc2nc3ccccc3cc2-c2nnc(Cn3c(COc4ccccc4)nc4ccccc43)o2)cc1 :: class 0
5. COc1ccc2c(c1)[C@@]1(C)CCC3c4ccc(O)cc4CCC3C1C2 (some centres undefined) :: class 0
6. O=C(Nc1cccc(-n2ccc3c(NC(=O)c4ccccc4)nccc32)c1)c1cc(N2CCOCC2)cc(C(F)(F)F)c1 :: class 1
7. COc1cc(/C=C2\C(=O)Nc3ccccc32)cc(OC)c1OC :: class 0
8. Oc1ccc(CN(Cc2ccc(C(F)(F)F)cc2)Cc2ccc(O)c3ncccc23)c2cccnc12 :: class 1
9. CC1(C)Cc2c(Br)c(Br)c(Br)c(OCC(O)CN3CCOCC3)c2O1 (centres undefined) :: class 0
10. CCC(=O)c1ccc2c(c1)N(CCCN1CCN(CCO)CC1)c1ccccc1S2 :: class 0
11. COc1ccc(-c2ccccc2)cc1-c1c(Nc2cc(Cl)cc(Cl)c2O)c(=O)c1=O :: class 0
12. Cc1ccc2[nH]c(C(=O)NN3C(=O)C(C)SC34CCCCC4C)c(-c3ccccc3)c2c1 (centres undefined) :: class 0
13. Cc1ccc(C[P+](c2ccccc2)(c2ccccc2)c2ccccc2)cc1 :: class 0
14. O=[N+]([O-])c1cccc(-c2cc(-c3cc(Br)ccc3O)[nH]n2)c1 :: class 0
